Target: F protein of hPIV Type 3 (hPIV3 C243) (human Parainfluenza Virus type 3 (hPIV3 …))
Assay: cell-based or functional assay
*1 amine or outer side, *2 acyl side, *3 side chain or, on linkers, in order; H or OH if unused. Side-chain parts run from the residue outwards. The star is where a group is joined. Succinyl(4-O-cholesteryl) = CC(C)CCC[C@@H](C)[C@H]1CC[C@H]2[C@@H]3CC=C4C[C@@H](OC(=O)CCC(=O)*)CC[C@]4(C)[C@H]3CC[C@]12C; Suc = O=C(CCC(=O)[*:2])[*:1]
Label y when EC50 (nM), plaque reduction, hPIV3 C243 on LLC-MK2 cells is strictly below 30 nM; at or above that, label n.

Ac-WDEFDASISQVNEKINQSLEEIRKSDELLHNVNALEAAAKK([Suc-Succinyl(4-O-cholesteryl)])-NH2 [Compound 38]	y
Ac-LVKKIDEFDASISQVNEKINQSLEEIRKSDELLHNVGSGSGK([Suc-Succinyl(4-O-cholesteryl)])-NH2 [Compound 29]	y
Ac-DEFDKKKIEEVNKKIEESLKKIEESDKKLEEVEAAAKK([Suc-Succinyl(4-O-cholesteryl)])-NH2 [Compound 22]	n
Ac-FDASIEEVNRRIEESLRRIEESDRRLEEVNAEAAAKK([Suc-Succinyl(4-O-cholesteryl)])-NH2 [Compound 42]	y
Ac-SLEQVNEKINQSLAFIRKSDEINQSDEEVNKSDELLEAAAKK-NH2 [Compound 50]	n

Incoming: # TODO verify EC50 (nM), plaque reduction, hPIV3 C243 on LLC-MK2 cells < 30 nM strictly for this binder: Ac-FDEEISQVNEKINQSLAFIRKSDELLHNVNAGKSTTEAAAKK([Suc-Succinyl(4-O-cholesteryl)])-NH2 [Compound 26]
Outgoing: y

Incoming: Do the same for Ac-DEFDASISQVNEKINQSLEEIRKSDELLHNEAAAKK([Suc-Succinyl(4-O-cholesteryl)])-NH2 [Compound 28] please
Outgoing: n

Incoming: Do the same for Ac-WDEFDKKIEEVNKKIEESLKKIEESDKKLEEVNAEAAAKK([Suc-Succinyl(4-O-cholesteryl)])-NH2 [Compound 40] please
Outgoing: y

Incoming: Do the same for Ac-SDELVNKKIEFDKKINQSLKKIEESDKKKLEAAAKK-NH2 [Compound 51] please
Outgoing: y

Incoming: Do the same for Ac-DEFDKKKIEEVNKKIEESLKKIEESDKKLEEVGSGSGK([Suc-Succinyl(4-O-cholesteryl)])-NH2 [Compound 18] please
Outgoing: n

Origin of the recorded values: patent EP4792821A2
